experimentalProtocol: Triple helix melting point (Tm) by circular dichroism at 225 nm
Assay type: physicochemical
conditionLabel: Table 2; triple helix melting
Non-standard residues stand in square brackets, D forms with d. No end group written: not given here. Hyp = O=C(O)[C@@H]1C[C@@H](O)CN1; CF = carboxyfluorescein label
quantityMeasured: Tm (° C.)

substance	result
[(CF-G3GPO)5G3)2KG ({CF}-GGGGP[Hyp]GP[Hyp]GP[Hyp]GP[Hyp]GP[Hyp]GGGKGGG[Hyp]PG[Hyp]PG[Hyp]PG[Hyp]PG[Hyp]PGGGG; not fully specified (C-terminus); also: lysine-branched dimer: K22 is the branch point, second arm (23-43) is written reversed, its N-terminus at position 43 carries CF) [CF-5d]	28 (SEQ ID NO: 70) ° C.
CF-G3-(GPO5) (GGGGPPGPPGPPGPPGPP; carboxyfluorescein label; collagen hybridizing peptide; (6)..(6) Proline is hydroxyproline; (9)..(9) Proline is hydroxyproline; (12)..(12) Proline is hydroxyproline; (15)..(15) Proline is hydroxyproline; (18)..(18) Proline is hydroxyproline) [CF-5, reference compound]	28 (SEQ ID NO: 69) ° C.
CF-G3-(GPO6) (GGGGPPGPPGPPGPPGPPGPP; carboxyfluorescein label; collagen hybridizing peptide; (6)..(6) Proline is hydroxyproline; (9)..(9) Proline is hydroxyproline; (12)..(12) Proline is hydroxyproline; (15)..(15) Proline is hydroxyproline; (18)..(18) Proline is hydroxyproline; (21)..(21) Proline is hydroxyproline) [CF-6]	37 (SEQ ID NO: 60) ° C.

Okay, next one:
Item: [(GPO)5G3)2KG (GP[Hyp]GP[Hyp]GP[Hyp]GP[Hyp]GP[Hyp]GGGKGGG[Hyp]PG[Hyp]PG[Hyp]PG[Hyp]PG[Hyp]PG; not fully specified (C-terminus); also: lysine-branched dimer: K19 is branch point carrying two arms and a third (C-terminal) Gly, residues 20-37 are the second arm written in reverse order) [5d] | Tm (° C.): 27 (SEQ ID NO: 68) ° C.

Data provenance is patent US11684675B2.
